System: SARS-CoV-2
TEST DETAILS: microbe, parasite or virus in culture
Format: cell-based
STATED CONDITIONS: Severe acute respiratory syndrome coronavirus 2, 72 h; VeroE6/TMPRSS2 cells, 100 TCID50/well, 3 days; class symbols
pEC50: −log10 of the molar value.

CHEMICAL SMILES | pEC50
Cn1cnc(Cn2c(=O)nc(Nc3cc4cn(CC(F)F)nc4cc3Cl)n(Cc3cc(F)c(F)c(F)c3)c2=O)n1 | > 6.00
Cc1cc2nn(C)cc2cc1Nc1nc(=O)n(-c2cncc3ccccc23)c(=O)n1Cc1cc(F)c(F)c(F)c1 | 5.00 to 6.00
Cn1cnc(Cn2c(=O)nc(Nc3cc4cn(C(F)F)nc4cc3Cl)n(Cc3cc(F)c(F)c(F)c3)c2=O)n1 | 5.00 to 6.00
O=c1nc(Nc2cc3cn(CCN4CCOCC4)nc3cc2Cl)n(Cc2cc(F)c(F)c(F)c2)c(=O)n1-c1cncc2ccccc12 | 5.00 to 6.00
Cc1cncc(-n2c(=O)nc(Nc3cc4cn(C)nc4cc3C)n(Cc3ccc(F)c(C#N)c3)c2=O)c1 | > 6.00
Cc1nc2cc(Cl)c(Nc3nc(=O)n(Cc4ncn(C)n4)c(=O)n3Cc3cc(F)c(F)c(F)c3)cc2n1C | 5.00 to 6.00

Each recorded value in this set is attributed to patent US20250025459A1.
